Source: patent US5223507A

Target desc: μ opioid receptors (Rattus norvegicus, UniProt P33535)
Sequence (P33535 whole entry): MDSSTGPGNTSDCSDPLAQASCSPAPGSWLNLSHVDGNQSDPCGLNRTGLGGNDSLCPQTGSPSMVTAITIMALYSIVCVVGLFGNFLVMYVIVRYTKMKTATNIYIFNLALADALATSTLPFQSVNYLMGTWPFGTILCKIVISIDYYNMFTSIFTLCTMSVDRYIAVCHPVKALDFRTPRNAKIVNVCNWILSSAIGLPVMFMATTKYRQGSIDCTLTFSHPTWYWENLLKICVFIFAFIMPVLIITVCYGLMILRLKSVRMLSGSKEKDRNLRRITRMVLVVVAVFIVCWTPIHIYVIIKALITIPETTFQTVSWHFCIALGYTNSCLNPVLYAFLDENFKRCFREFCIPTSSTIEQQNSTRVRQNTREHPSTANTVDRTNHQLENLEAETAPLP
pIC50: −log10 of the molar value. Structures can show the parent of a compound that is named as a salt.

{"columns": ["Compound", "Target desc", "pIC50"],
 "data": [
  ["CN1CC[C@]23c4c5ccc(O)c4O[C@H]2c2oc4ccccc4c2C[C@@]3(O)[C@H]1C5 [II, monohydrochloride]", "μ opioid receptors (Rattus norvegicus, UniProt P33535)", 7.03],
  ["Oc1ccc2c3c1O[C@H]1c4oc5ccccc5c4C[C@@]4(O)[C@@H](C2)N(CC2CCC2)CC[C@]314 [XV, monohydrochloride]", "μ opioid receptors (Rattus norvegicus, UniProt P33535)", 6.16],
  ["CN1CC[C@]23c4c5ccc(O)c4O[C@H]2c2[nH]c4c(Br)cccc4c2C[C@H]3[C@H]1C5 [XIII, monohydrochloride]", "μ opioid receptors (Rattus norvegicus, UniProt P33535)", 6.58],
  ["CN1CC[C@]23c4c5ccc(O)c4O[C@H]2c2[nH]c4c(Br)cccc4c2C[C@@]3(O)[C@H]1C5 [VII, monohydrochloride]", "μ opioid receptors (Rattus norvegicus, UniProt P33535)", 6.60],
  ["CN1CC[C@]23c4c5ccc(O)c4O[C@H]2c2[nH]c4ccccc4c2C[C@H]3[C@H]1C5 [XII, monohydrochloride]", "μ opioid receptors (Rattus norvegicus, UniProt P33535)", 7.24],
  ["C=CCN1CC[C@]23c4c5ccc(O)c4O[C@H]2c2oc4ccccc4c2C[C@@]3(O)[C@H]1C5 [IX, monohydrochloride]", "μ opioid receptors (Rattus norvegicus, UniProt P33535)", 6.63],
  ["CN1CC[C@]23c4c5ccc(O)c4O[C@H]2c2[nH]c4ccccc4c2C[C@@]3(O)[C@H]1C5 [I, monohydrochloride]", "μ opioid receptors (Rattus norvegicus, UniProt P33535)", 6.82]
]}
